- Measured target: T1, His-tagged mouse CD38 (ACRO Biosystems #CD8-M5223) (mouse, UniProt P56528 45-304)
- T1 construct: bought recombinant protein with His tag; also called Murine
- T1 sequence (looked up): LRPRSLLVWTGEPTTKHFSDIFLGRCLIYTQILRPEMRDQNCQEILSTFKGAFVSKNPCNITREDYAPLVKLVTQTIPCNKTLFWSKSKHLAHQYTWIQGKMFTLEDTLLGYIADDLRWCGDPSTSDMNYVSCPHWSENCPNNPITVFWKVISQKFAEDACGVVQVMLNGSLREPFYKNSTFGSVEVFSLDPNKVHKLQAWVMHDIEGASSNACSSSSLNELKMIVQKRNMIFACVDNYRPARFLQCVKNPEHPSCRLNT
- Experimental protocol: SPR, captured scFv-Fc, His-CD38 analyte;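 also: SPR on a Carterra LSA, scFv-Fc captured by anti-human Fc on HC30M chip, His-tagged CD38 (human, mouse, cynomolgus) flowed as analyte in eight 1:2 steps from 400 nM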
Measure name: Kd (nM)
Entry rule: numbers only, all in nM.

binder="40617p1.2.A3 (scFv, V domains shown, tested as scFv-Fc supernatant) VH: EVQLLESGGGLVQPGGSLRLSCAASGFTFSNYWMTWVRQAPGKGLEWVSAISSYGGNYIYYADSVKGRFTISRDNSKDTLYLQMNSLRAEDTAVYYCAKDWDDGMDVWGQGTTVTVSS VL: EIVMTQSPAVLSVSPGERATLSCRASQSVNSKLAWYQQKPGQAPRLLIYGASTRAAGIPDRFSGSGSGTDFTLTISSPQSEDFAVYYCQHYYDLPPYSFGGGTKVEIK" measure_name=Kd unit=nM readout_value=75.5
binder="40769p1.2.B10 (scFv, V domains shown, tested as scFv-Fc supernatant) VH: EVQLLESGGGLVQPGGSLRLSCPASGFDFSSYWMTWVRQAPGKGLEWVSTITDSGGRAWYADSVRGRFTISRDNSKNTLYLQMNSLRAEDTAVYYCARDTPKTYYYYAMDVWGQGTTVTV VL: QSALTQPPSASGTPGQRVTISCSGSSSNIQYSYVSWYQQLPGTAPKLLIYNNVQRPSGVPDRFSGSKSGTSASLAISGLQSEDEADYYCATWDESLLGLWVFGGGTKLTVL" measure_name=Kd unit=nM readout_value=56300

Sample 40617p1.2.H8 (scFv, V domains shown, tested as scFv-Fc supernatant) VH: EVQLLESGGGLVQPGGSLRLSCAASGFTFSSYWMTWVRQAPGKGLEWVSAISSYGGNYMYYADSVKGRFTISRDNSKDTLYLQMNSLRAEDTAVYYCAKDWDDGMDVWGQGTTVTVSS VL: EIVMTQSPATLSVSPGDRATLSCRASQSVNSKLAWYQQKPGQAPRLLIYAASSRATGIPDRFSGSGSGTDFTLTISRLEPEDFAVYYCQQYYDLPPYSFGGGTKVEIK — what was its Kd? 154

meta.source: patent US20220306762A1
